Reference source: patent US12492188B2

# tested system: human TLR9 (Homo sapiens, UniProt Q9NR96)
# Construct: host or cells: HEK-Blue cells (HEK293-derived reporter line)
# Sequence (Q9NR96 26-1032): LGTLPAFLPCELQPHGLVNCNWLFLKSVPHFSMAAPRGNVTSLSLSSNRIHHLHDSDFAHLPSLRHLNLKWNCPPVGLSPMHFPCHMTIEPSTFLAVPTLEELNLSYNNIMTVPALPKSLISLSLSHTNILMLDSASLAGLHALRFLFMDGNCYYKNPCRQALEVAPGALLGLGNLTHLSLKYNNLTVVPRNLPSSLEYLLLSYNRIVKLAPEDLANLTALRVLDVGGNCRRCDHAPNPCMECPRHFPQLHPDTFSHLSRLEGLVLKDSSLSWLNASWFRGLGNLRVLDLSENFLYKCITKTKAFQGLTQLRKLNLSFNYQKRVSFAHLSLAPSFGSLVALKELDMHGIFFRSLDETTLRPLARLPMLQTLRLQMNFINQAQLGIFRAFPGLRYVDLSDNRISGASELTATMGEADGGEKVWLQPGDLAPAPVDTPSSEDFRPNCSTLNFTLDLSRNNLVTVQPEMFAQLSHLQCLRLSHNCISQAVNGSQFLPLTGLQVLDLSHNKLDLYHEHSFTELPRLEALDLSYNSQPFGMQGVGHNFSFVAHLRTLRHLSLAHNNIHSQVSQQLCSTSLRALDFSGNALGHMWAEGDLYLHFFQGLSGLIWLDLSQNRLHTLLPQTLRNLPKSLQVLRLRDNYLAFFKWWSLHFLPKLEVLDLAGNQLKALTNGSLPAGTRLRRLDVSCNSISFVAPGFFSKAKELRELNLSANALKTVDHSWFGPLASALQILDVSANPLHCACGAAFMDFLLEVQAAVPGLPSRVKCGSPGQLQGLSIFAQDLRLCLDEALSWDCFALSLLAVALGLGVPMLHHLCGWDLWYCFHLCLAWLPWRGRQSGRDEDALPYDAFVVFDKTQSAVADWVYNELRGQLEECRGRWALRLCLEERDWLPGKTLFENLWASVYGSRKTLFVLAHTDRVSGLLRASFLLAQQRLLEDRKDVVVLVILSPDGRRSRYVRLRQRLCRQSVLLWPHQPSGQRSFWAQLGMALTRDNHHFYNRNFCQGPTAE
# assay overview: TLR9 inhibition reporter assay (HEK-Blue cells, secreted embryonic alkaline phosphatase reporter)
# Type: cell-based
# recorded conditions: HEK-Blue cells overexpressing human TLR9, stimulated with ODN2006 5 nM; read-out: TLR 9 IC50

compound: Cn1c(-c2ccc(S(C)(=O)=O)cc2)nc2cc(C3CCN(C4CC5CCC(C4)N5C4CCOCC4)CC3)c(F)cc21 (single isomer, unassigned) [Example 256]
IC50 / nM: 315
//
compound: Cn1c(-c2ccc(S(C)(=O)=O)cc2)nc2ccc(C3CCN(C4CC5CCC(C4)N5C4CCOCC4)CC3)c(F)c21 (stereo not drawn) [Example 274]
IC50 / nM: 51
//
compound: COc1cc(-c2nc3c(C)cc(C4CCN(C5CC6CCC(C5)N6CC(C)C)CC4)cc3[nH]2)cn2ncnc12 (stereo not drawn) [Example 359]
IC50 / nM: 76
